Test system: Morningglory
Test: Post-emergence herbicidal activity, greenhouse
Format: in vivo
Details: Table I; 11.2 kg/h; 4 WAT
Examples of compounds with documented post-emergence herbicidal activity index follow.

CCOC(=O)CN(CP(=O)(Oc1ccc(OC)cc1)Oc1ccc(OC)cc1)SSC    3 (75-99% control)
CCOC(=O)CN(CP(=O)(Oc1ccc(Cl)c(C)c1)Oc1ccc(Cl)c(C)c1)SSc1ccc(OC)cc1    1 (25-49% control)
COC(=O)CN(CP(=O)(Oc1ccccc1)Oc1ccccc1)SSC(C)C    3 (75-99% control)
COC(=O)CN(CP(=O)(Oc1ccccc1OC)Oc1ccccc1OC)SSc1cccc(C(F)(F)F)c1    2 (50-74% control)
O=C(CN(CP(=O)(Oc1ccccc1)Oc1ccccc1)SSCCc1ccccc1)OCc1ccccc1    2 (50-74% control)
CCCCCCCCSSN(CC(=O)OC)CP(=O)(Oc1ccccc1)Oc1ccccc1    2 (50-74% control)

Shifting focus to the compound that follows.
Problem: Consider the compound shown here: O=C(CN(CP(=O)(Oc1ccccc1)Oc1ccccc1)SSC1CCCCC1)OCc1ccccc1 What is its recorded post-emergence herbicidal activity index?
Result: 2 (50-74% control)

* * *

Tested on: Cocklebur
Experiment: Post-emergence herbicidal activity, greenhouse
Assay type: in vivo
Conditions: Table II; 5.6 kg/h; 4 WAT
Text: A good grade of top soil is placed in aluminum pans having holes in the bottom and compacted to a depth of 0.95 to 1.27 cm. from the top of the pan. […] The pans are returned to the greenhouse and watered as before and the injury to the plants as compared to the control is observed at approximately two and four weeks as indicated in the tables under WAT and the results recorded. […]
readout-label: post-emergence herbicidal activity index

Past entries and their recorded results:
O=C(CN(CP(=O)(Oc1ccccc1)Oc1ccccc1)SSCCc1ccccc1)OCc1ccccc1    3 (75-99% control)
CCOC(=O)CN(CP(=O)(Oc1ccc(OC)cc1)Oc1ccc(OC)cc1)SSC    4 (100% control)
COC(=O)CN(CP(=O)(Oc1ccccc1)Oc1ccccc1)SSC(C)C    3 (75-99% control)

Problem: Consider the compound shown here: COC(=O)CN(CP(=O)(Oc1ccccc1OC)Oc1ccccc1OC)SSc1cccc(C(F)(F)F)c1 What is its recorded post-emergence herbicidal activity index?
Result: 3 (75-99% control)

Problem: Consider the compound shown here: CCCCCCCCSSN(CC(=O)OC)CP(=O)(Oc1ccccc1)Oc1ccccc1 What is its recorded post-emergence herbicidal activity index?
Result: 3 (75-99% control)

* * *

System: Lambsquarters
Test: Post-emergence herbicidal activity, greenhouse
Format: in vivo
Settings: Table I; 11.2 kg/h; 4 WAT
Examples of molecules with documented post-emergence herbicidal activity index follow.

CCOC(=O)CN(CP(=O)(Oc1ccc(OC)cc1)Oc1ccc(OC)cc1)SSC    3 (75-99% control)
COC(=O)CN(CP(=O)(Oc1ccccc1OC)Oc1ccccc1OC)SSc1cccc(C(F)(F)F)c1    3 (75-99% control)
O=C(CN(CP(=O)(Oc1ccccc1)Oc1ccccc1)SSC1CCCCC1)OCc1ccccc1    2 (50-74% control)

Shifting focus to the molecule that follows.
Problem: Consider the molecule shown here: CCOC(=O)CN(CP(=O)(Oc1ccc(Cl)c(C)c1)Oc1ccc(Cl)c(C)c1)SSc1ccc(OC)cc1 What is its recorded post-emergence herbicidal activity index?
Result: 2 (50-74% control)

* * *

System: Downy Brome
Assay: Post-emergence herbicidal activity, greenhouse
Format: in vivo
Details: Table I; 11.2 kg/h; 4 WAT
readout-label: post-emergence herbicidal activity index

Past entries and their recorded results:
CCCCCCCCSSN(CC(=O)OC)CP(=O)(Oc1ccccc1)Oc1ccccc1 [II]    1 (25-49% control)
CCOC(=O)CN(CP(=O)(Oc1ccc(Cl)c(C)c1)Oc1ccc(Cl)c(C)c1)SSc1ccc(OC)cc1 [VII]    2 (50-74% control)
O=C(CN(CP(=O)(Oc1ccccc1)Oc1ccccc1)SSCCc1ccccc1)OCc1ccccc1 [IV]    1 (25-49% control)
O=C(CN(CP(=O)(Oc1ccccc1)Oc1ccccc1)SSC1CCCCC1)OCc1ccccc1 [III]    1 (25-49% control)

Problem: # returns recorded post-emergence herbicidal activity index (system: Downy Brome) for COC(=O)CN(CP(=O)(Oc1ccccc1)Oc1ccccc1)SSC(C)C [I]
Result: 3 (75-99% control)

Problem: # returns recorded post-emergence herbicidal activity index (system: Downy Brome) for COC(=O)CN(CP(=O)(Oc1ccccc1OC)Oc1ccccc1OC)SSc1cccc(C(F)(F)F)c1 [V]
Result: 1 (25-49% control)

Problem: # returns recorded post-emergence herbicidal activity index (system: Downy Brome) for CCOC(=O)CN(CP(=O)(Oc1ccc(OC)cc1)Oc1ccc(OC)cc1)SSC [VI]
Result: 3 (75-99% control)

* * *

System: Yellow Nutsedge
Test: Pre-emergent herbicidal activity
Type: in vivo
Settings: Table III; 11.2 kg/h; 2 WAT
readout-label: pre-emergent herbicidal activity index

O=C(CN(CP(=O)(Oc1ccccc1)Oc1ccccc1)SSCCc1ccccc1)OCc1ccccc1 [IV]    0 (0-24% control)
COC(=O)CN(CP(=O)(Oc1ccccc1)Oc1ccccc1)SSC(C)C [I]    3 (75-100% control)
COC(=O)CN(CP(=O)(Oc1ccccc1OC)Oc1ccccc1OC)SSc1cccc(C(F)(F)F)c1 [V]    0 (0-24% control)
CCOC(=O)CN(CP(=O)(Oc1ccc(OC)cc1)Oc1ccc(OC)cc1)SSC [VI]    0 (0-24% control)
CCCCCCCCSSN(CC(=O)OC)CP(=O)(Oc1ccccc1)Oc1ccccc1 [II]    0 (0-24% control)

Problem: Consider the molecule shown here: O=C(CN(CP(=O)(Oc1ccccc1)Oc1ccccc1)SSC1CCCCC1)OCc1ccccc1 [III] What is its recorded pre-emergent herbicidal activity index?
Result: 0 (0-24% control)

* * *

Test system: Johnsongrass
Experiment: Pre-emergent herbicidal activity
Type: in vivo
Conditions: Table III; 11.2 kg/h; 2 WAT
Examples of molecules with documented pre-emergent herbicidal activity index follow.

Problem: Consider the molecule shown here: O=C(CN(CP(=O)(Oc1ccccc1)Oc1ccccc1)SSCCc1ccccc1)OCc1ccccc1 What is its recorded pre-emergent herbicidal activity index?
Result: 0 (0-24% control)

* * *

Test system: Barnyardgrass
Test: Post-emergence herbicidal activity, greenhouse
Format: in vivo
Details: Table I; 11.2 kg/h; 4 WAT
Examples of compounds with documented post-emergence herbicidal activity index follow.

Past entries and their recorded results:
O=C(CN(CP(=O)(Oc1ccccc1)Oc1ccccc1)SSC1CCCCC1)OCc1ccccc1    2 (50-74% control)
CCOC(=O)CN(CP(=O)(Oc1ccc(OC)cc1)Oc1ccc(OC)cc1)SSC    3 (75-99% control)
O=C(CN(CP(=O)(Oc1ccccc1)Oc1ccccc1)SSCCc1ccccc1)OCc1ccccc1    2 (50-74% control)
COC(=O)CN(CP(=O)(Oc1ccccc1)Oc1ccccc1)SSC(C)C    4 (100% control)
CCOC(=O)CN(CP(=O)(Oc1ccc(Cl)c(C)c1)Oc1ccc(Cl)c(C)c1)SSc1ccc(OC)cc1    3 (75-99% control)

Problem: Consider the compound shown here: COC(=O)CN(CP(=O)(Oc1ccccc1OC)Oc1ccccc1OC)SSc1cccc(C(F)(F)F)c1 What is its recorded post-emergence herbicidal activity index?
Result: 3 (75-99% control)

Problem: Consider the compound shown here: CCCCCCCCSSN(CC(=O)OC)CP(=O)(Oc1ccccc1)Oc1ccccc1 What is its recorded post-emergence herbicidal activity index?
Result: 2 (50-74% control)

* * *

Tested on: Downy Brome
Test: Post-emergence herbicidal activity, greenhouse
Assay type: in vivo
Details: Table II; 1.12 kg/h; 4 WAT
readout-label: post-emergence herbicidal activity index

COC(=O)CN(CP(=O)(Oc1ccccc1)Oc1ccccc1)SSC(C)C [I]    1 (25-49% control)

Shifting focus to the compound that follows.
Problem: # returns recorded post-emergence herbicidal activity index (system: Downy Brome) for O=C(CN(CP(=O)(Oc1ccccc1)Oc1ccccc1)SSCCc1ccccc1)OCc1ccccc1 [IV]
Result: 0 (0- 24% control)

* * *

Test system: Barnyardgrass
Assay: Pre-emergent herbicidal activity
Type: in vivo
Details: Table III; 11.2 kg/h; 2 WAT
Source text: A good grade of top soil is placed in aluminum pans and compacted to a depth of 0.95 to 1.27 cm. from the top of each pan. A predetermined number of seeds or vegetative propagules of each of several plant species are placed on top of the soil in each pan and then pressed down. Herbicidal compositions prepared as in the previous example are applied by admixture with or incorporation in the top layer of soil. […]
readout-label: pre-emergent herbicidal activity index

Past entries and their recorded results:
O=C(CN(CP(=O)(Oc1ccccc1)Oc1ccccc1)SSCCc1ccccc1)OCc1ccccc1    0 (0-24% control)
COC(=O)CN(CP(=O)(Oc1ccccc1OC)Oc1ccccc1OC)SSc1cccc(C(F)(F)F)c1    3 (75-100% control)
CCCCCCCCSSN(CC(=O)OC)CP(=O)(Oc1ccccc1)Oc1ccccc1    0 (0-24% control)

Problem: Consider the compound shown here: COC(=O)CN(CP(=O)(Oc1ccccc1)Oc1ccccc1)SSC(C)C What is its recorded pre-emergent herbicidal activity index?
Result: 2 (50-74% control)

Problem: Consider the compound shown here: O=C(CN(CP(=O)(Oc1ccccc1)Oc1ccccc1)SSC1CCCCC1)OCc1ccccc1 What is its recorded pre-emergent herbicidal activity index?
Result: 0 (0-24% control)

Problem: Consider the compound shown here: CCOC(=O)CN(CP(=O)(Oc1ccc(OC)cc1)Oc1ccc(OC)cc1)SSC What is its recorded pre-emergent herbicidal activity index?
Result: 0 (0-24% control)
